Kindly supply the reported Ragweed plant response rating (0 to 100 scale) values for the records listed here.
# Test system: ragweed (common ragweed, Ambrosia artemisiifolia)
# test_name: Test C preemergence, visual plant response rating
# Format: in vivo
# condition_label: Test C, 31 g ai/ha, 0 is no effect, 100 is complete control
Give bare numbers.

Below, 6 compounds whose answers are already recorded.
q: Suppose we examine the compound CO/N=C(\c1cc(F)cc(C)c1F)c1c(O)c(C)nn(C)c1=O [Compound 193] ; what Ragweed plant response rating (0 to 100 scale) value has been reported?
a: 30

q: Suppose we examine the compound C#CCO/N=C(\c1cc(Cl)cc(Br)c1)c1c(O)c(C)nn(C)c1=O [Compound 292] ; what Ragweed plant response rating (0 to 100 scale) value has been reported?
a: 90

q: Suppose we examine the compound CO/N=C(/c1cccc(/C=C/Cl)c1)c1c(O)c(C)nn(C)c1=O [Compound 285] ; what Ragweed plant response rating (0 to 100 scale) value has been reported?
a: 0

q: Suppose we examine the compound C#CCO/N=C(\c1ccc(F)c(Cl)c1)c1c(O)c(C)nn(C)c1=O [Compound 230] ; what Ragweed plant response rating (0 to 100 scale) value has been reported?
a: 0

q: Suppose we examine the compound CC(C)O/N=C(/c1c(O)cnn(C)c1=O)c1ccc(F)c2ccccc12 [Compound 302] ; what Ragweed plant response rating (0 to 100 scale) value has been reported?
a: 0

q: Suppose we examine the compound CCO/N=C(\c1c(O)cnn(C)c1=O)c1ccc(F)c2ccccc12 [Compound 269] ; what Ragweed plant response rating (0 to 100 scale) value has been reported?
a: 0

Could I get Ragweed plant response rating (0 to 100 scale) for every one of these entries?
1. C#CCO/N=C(\c1cccc(/C=C\Cl)c1)c1c(O)c(C)nn(C)c1=O [Compound 264]
2. CCOc1cccc(C(=NOC)c2c(O)c(C)nn(C)c2=O)c1 [Compound 200]
3. C#CCO/N=C(\c1cc(C)cc(Cl)c1)c1c(O)c(C)nn(C)c1=O [Compound 155]

a:
1: 0; 2: 0; 3: 70

----------
# Tested on: foxtail, green (green foxtail, Setaria viridis)
# test_name: Test A postemergence, visual plant response rating
# Type: in vivo
# condition_label: Postemergence, 125 g ai/ha; 0 to 100 scale (0 no effect, 100 complete control)
readout_label: Foxtail, Green plant response rating

Below, 4 molecules whose answers are already recorded.
q: Suppose we examine the molecule CCO/N=C(/c1cccc(Cl)c1)c1c(O)c(C)nn(C)c1=O [Compound 9] ; what Foxtail, Green plant response rating value has been reported?
a: 10

q: Suppose we examine the molecule CO/N=C(/c1c(O)c(C)nn(C)c1=O)c1cccc2ccccc12 [Compound 31] ; what Foxtail, Green plant response rating value has been reported?
a: 50

q: Suppose we examine the molecule CON=C(c1cccc(C)c1)c1c(O)c(Cl)nn(C)c1=O [Compound 128] ; what Foxtail, Green plant response rating value has been reported?
a: 20

q: Suppose we examine the molecule Cc1ccccc1/C(=N\OC(C)C)c1c(O)c(C)nn(C)c1=O [Compound 20] ; what Foxtail, Green plant response rating value has been reported?
a: 30

# context switch: different molecule, same Foxtail, Green plant response rating
q: Suppose we examine the molecule CO/N=C(\c1cccc(C)c1C)c1c(O)c(C)nn(C)c1=O [Compound 22] ; what Foxtail, Green plant response rating value has been reported?
a: 0
